Measured values drawn from ChEMBL document CHEMBL3779864 for this set.

- Measured on: Substance-P receptor (Homo sapiens)
- Sequence (P25103 whole entry): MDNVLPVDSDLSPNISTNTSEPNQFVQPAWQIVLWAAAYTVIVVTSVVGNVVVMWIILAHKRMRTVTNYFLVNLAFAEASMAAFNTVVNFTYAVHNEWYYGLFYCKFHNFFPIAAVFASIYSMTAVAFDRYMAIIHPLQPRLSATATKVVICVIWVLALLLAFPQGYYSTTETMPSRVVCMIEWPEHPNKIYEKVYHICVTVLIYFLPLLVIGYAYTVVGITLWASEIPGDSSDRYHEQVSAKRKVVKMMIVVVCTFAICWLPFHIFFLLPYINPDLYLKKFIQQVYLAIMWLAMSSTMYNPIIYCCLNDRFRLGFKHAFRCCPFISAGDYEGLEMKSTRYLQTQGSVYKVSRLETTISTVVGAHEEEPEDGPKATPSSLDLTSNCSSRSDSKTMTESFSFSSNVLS
- Assay procedure: Displacement of [3H]SP from human NK1 receptor transfected in CHO cells by liquid scintillation counting method
Quantity measured: Ki (nM)

1. Cc1cc(O)cc(C)c1C[C@H](N)C(=O)N[C@H](CCCNC(=N)N)C(=O)N[C@H]1Cc2ccccc2CN(CCC(=O)N2CC[C@@H](C(=O)N(C)Cc3cc(C(F)(F)F)cc(C(F)(F)F)c3)[C@H](c3ccccc3)C2)C1=O	1.9
2. Cc1cc(O)cc(C)c1C[C@H](N)C(=O)N[C@H](CCCNC(=N)N)C(=O)N[C@@H](Cc1ccccc1)C(=O)N[C@@H](CCCCN)CC(=O)N1CC[C@@H](C(=O)N(C)Cc2cc(C(F)(F)F)cc(C(F)(F)F)c2)[C@H](c2ccccc2)C1	2.2
3. Cc1cc(O)cc(C)c1C[C@H](N)C(=O)N[C@H](CCCNC(=N)N)C(=O)N[C@H]1Cc2ccccc2CN(CCC(=O)N2CCN([C@@H]3CCN(C(=O)c4cc(C(F)(F)F)cc(C(F)(F)F)c4)C[C@@H]3c3ccccc3)CC2)C1=O	1.4
4. Cc1cc(O)cc(C)c1C[C@H](N)C(=O)N[C@H](CCCNC(=N)N)C(=O)N[C@@H](Cc1ccccc1)C(=O)N[C@@H](CCCCN)C(=O)N(C)[C@@H]1CCN(C(=O)c2cc(C(F)(F)F)cc(C(F)(F)F)c2)C[C@@H]1c1ccccc1	1.1
5. Cc1cc(O)cc(C)c1C[C@H](N)C(=O)N[C@H](CCCNC(=N)N)C(=O)N[C@@H](Cc1ccccc1)C(=O)N[C@@H](CCCCN)C(=O)N1CCN([C@@H]2CCN(C(=O)c3cc(C(F)(F)F)cc(C(F)(F)F)c3)C[C@@H]2c2ccccc2)CC1	0.99

* * *

- Measured on: Mu-type opioid receptor (Rattus norvegicus, UniProt P33535)
- Sequence (P33535 whole entry): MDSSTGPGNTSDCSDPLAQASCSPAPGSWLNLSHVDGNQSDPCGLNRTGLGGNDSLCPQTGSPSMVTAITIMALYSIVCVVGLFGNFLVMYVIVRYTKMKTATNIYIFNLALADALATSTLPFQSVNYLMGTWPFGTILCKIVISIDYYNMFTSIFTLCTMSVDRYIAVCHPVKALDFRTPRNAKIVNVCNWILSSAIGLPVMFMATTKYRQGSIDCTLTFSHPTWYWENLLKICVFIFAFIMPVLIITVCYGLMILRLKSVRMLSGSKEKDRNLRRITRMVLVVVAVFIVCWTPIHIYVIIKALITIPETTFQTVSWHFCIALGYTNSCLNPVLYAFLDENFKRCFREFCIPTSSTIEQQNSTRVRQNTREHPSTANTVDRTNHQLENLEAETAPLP
pKi: −log10 of the molar value.
Quantity measured: pKi

1. Cc1cc(O)cc(C)c1C[C@H](N)C(=O)N[C@H](CCCNC(=N)N)C(=O)N[C@H]1Cc2ccccc2CN(CCC(=O)N2CCN([C@@H]3CCN(C(=O)c4cc(C(F)(F)F)cc(C(F)(F)F)c4)C[C@@H]3c3ccccc3)CC2)C1=O	8.93
2. Cc1cc(O)cc(C)c1C[C@H](N)C(=O)N[C@H](CCCNC(=N)N)C(=O)N[C@@H](Cc1ccccc1)C(=O)N[C@@H](CCCCN)C(=O)N(C)[C@@H]1CCN(C(=O)c2cc(C(F)(F)F)cc(C(F)(F)F)c2)C[C@@H]1c1ccccc1	7.27
3. Cc1cc(O)cc(C)c1C[C@H](N)C(=O)N[C@H](CCCNC(=N)N)C(=O)N[C@H]1Cc2ccccc2CN(CCC(=O)N(C)[C@@H]2CCN(C(=O)c3cc(C(F)(F)F)cc(C(F)(F)F)c3)C[C@@H]2c2ccccc2)C1=O	8.74
4. Cc1cc(O)cc(C)c1C[C@H](N)C(=O)N[C@H](CCCNC(=N)N)C(=O)N[C@H]1Cc2ccccc2CN(CCC(=O)N2CC[C@@H](C(=O)N(C)Cc3cc(C(F)(F)F)cc(C(F)(F)F)c3)[C@H](c3ccccc3)C2)C1=O	8.51

* * *

- Measured on: Delta-type opioid receptor (Mus musculus)
- Sequence (P32300 whole entry): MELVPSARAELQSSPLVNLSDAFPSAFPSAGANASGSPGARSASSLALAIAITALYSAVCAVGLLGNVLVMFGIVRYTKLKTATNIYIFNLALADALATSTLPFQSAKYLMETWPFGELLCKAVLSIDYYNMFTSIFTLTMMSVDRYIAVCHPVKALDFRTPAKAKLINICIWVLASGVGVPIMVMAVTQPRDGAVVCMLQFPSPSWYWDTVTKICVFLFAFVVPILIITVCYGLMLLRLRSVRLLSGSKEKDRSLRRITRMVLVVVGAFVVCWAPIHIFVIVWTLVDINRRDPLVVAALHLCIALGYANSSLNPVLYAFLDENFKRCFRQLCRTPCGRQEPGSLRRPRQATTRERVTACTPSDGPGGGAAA
- Assay procedure: Agonist activity at delta opioid receptor in mouse vas deferens assessed as inhibition of electrically-stimulated muscle contraction
Reported IC50 is given for each of the following compounds.
Quantity measured: IC50 (µM)

1) Cc1cc(O)cc(C)c1C[C@H](N)C(=O)N[C@H](CCCNC(=N)N)C(=O)N[C@H]1Cc2ccccc2CN(CCC(=O)N(C)[C@@H]2CCN(C(=O)c3cc(C(F)(F)F)cc(C(F)(F)F)c3)C[C@@H]2c2ccccc2)C1=O	0.0126
2) Cc1cc(O)cc(C)c1C[C@H](N)C(=O)N[C@H](CCCNC(=N)N)C(=O)N[C@@H](Cc1ccccc1)C(=O)N[C@@H](CCCCN)C(=O)N1CCN([C@@H]2CCN(C(=O)c3cc(C(F)(F)F)cc(C(F)(F)F)c3)C[C@@H]2c2ccccc2)CC1	0.384
3) Cc1cc(O)cc(C)c1C[C@H](N)C(=O)N[C@H](CCCNC(=N)N)C(=O)N[C@@H](Cc1ccccc1)C(=O)N[C@@H](CCCCN)C(=O)N(C)[C@@H]1CCN(C(=O)c2cc(C(F)(F)F)cc(C(F)(F)F)c2)C[C@@H]1c1ccccc1	0.814
